assay: Long-term stability test; format: physicochemical; conditions: 40 ± 2° C., 75% ± 5% RH, 5 months
Readout: Purity (5 months) (%)
Field format: number, assumed %, no unit text.

Past entries and their recorded results:
| Compound | Unit descriptor | Number |
| --- | --- | --- |
| COc1cc2c(Nc3ccc(Br)cc3F)ncnc2cc1OCCCCN(C)C.O=C(O)C(=O)O | % | 99.34 |
| COc1cc2c(Nc3ccc(Br)cc3F)ncnc2cc1OCCCCN(C)C [Example 3] | % | 98.84 |
| COc1cc2c(Nc3ccc(Br)cc3F)ncnc2cc1OCCCCN(C)C [Example 1] | % | 99.60 |

Asked: Recall and state the measured Purity (5 months) for COc1cc2c(Nc3ccc(Br)cc3F)ncnc2cc1OCCCCN(C)C.O=C(O)/C=C\C(=O)O .
Given back: 96.41

Asked: Consider the compound COc1cc2c(Nc3ccc(Br)cc3F)ncnc2cc1OCCCCN(C)C [Example 2] . State its measured Purity (5 months).
Given back: 98.56

* * *

Assay: Solubility test in water and pH 2.0 buffer (HPLC)
Assay type: physicochemical
Settings: pH 2.0 phosphoric acid-disodium hydrogen phosphate buffer, 25 °C, pH 2, aqueous buffer, thermodynamic from solid, 25° C., pH 2.0 phosphoric acid-disodium hydrogen phosphate buffer; read-out: Solubility (25° C., mg/mL) Medium: pH 2.0 buffer
Experimental: 2. Solubility (Water and pH 2.0 Buffer) Detection Instrument: Agilent 1260 High Performance Liquid Chromatograph Detection medium: purified water, pH 2.0 phosphoric acid-disodium hydrogen phosphate buffer Preparation of control solution: it was taken that an appropriate amount of the referen ce substance of the compound of Formula 1, accurately weighed, dissolved completely by solven t and diluted to 100 μg/mL. […]
Readout: solubility (mg/mL)
Give the value in mg/mL but do not write mg/mL after it.

Asked: Given COc1cc2c(Nc3ccc(Br)cc3F)ncnc2cc1OCCCCN(C)C.O=C(O)/C=C\C(=O)O , respond with its solubility.
Given back: 12.5

* * *

assay: Solubility test in water and pH 2.0 buffer (HPLC); type: physicochemical; conditions: 25° C., purified water
// Solubility (25° C., mg/mL) Medium: Water lookup, one value per entry
Report the figure in mg/mL without appending any unit label.

In the examples that follow, each entry is paired with its recorded Solubility (25° C., mg/mL) Medium: Water.
| Compound | Readout | Unit descriptor | Number |
| --- | --- | --- | --- |
| COc1cc2c(Nc3ccc(Br)cc3F)ncnc2cc1OCCCCN(C)C [Example 2] | Solubility (25° C., mg/mL) Medium: Water | mg/mL | 34.32 |
| COc1cc2c(Nc3ccc(Br)cc3F)ncnc2cc1OCCCCN(C)C [Example 3] | Solubility (25° C., mg/mL) Medium: Water | mg/mL | 10.91 |
| COc1cc2c(Nc3ccc(Br)cc3F)ncnc2cc1OCCCCN(C)C [Example 1] | Solubility (25° C., mg/mL) Medium: Water | mg/mL | 40.07 |

Okay, next one:
Asked: Read off the recorded Solubility (25° C., mg/mL) Medium: Water for COc1cc2c(Nc3ccc(Br)cc3F)ncnc2cc1OCCCCN(C)C [Preparation Example 1]
Given back: 0.036

* * *

test: Solubility test in conventional organic solvents; type: physicochemical; settings: organic solvent or mixture, thermodynamic from solid; read-out: solubility in various conventional organic solvents (all)
Readout: solubility

Asked: Tell us which solubility value is on record for COc1cc2c(Nc3ccc(Br)cc3F)ncnc2cc1OCCCCN(C)C
Given back: > 10000 µg/mL

* * *

assay: Solubility test in biological vehicles (FaSSIF, FeSSIF, SGF); assay type: physicochemical; settings: FaSSIF, 37 °C, pH 6.5, fassif, thermodynamic from solid, 0.5 h, 37° C., 200 rpm, target concentration 10 mg/mL; unit inferred; read-out: Solubility in FaSSIF (pH 6.5)
Readout: solubility at 0.5 h

Asked: Answer with the recorded solubility at 0.5 h of COc1cc2c(Nc3ccc(Br)cc3F)ncnc2cc1OCCCCN(C)C [Example 1] only.
Given back: > 10000 µg/mL

* * *

experiment: Solubility test in biological vehicles (FaSSIF, FeSSIF, SGF); format: physicochemical; conditions: SGF, 37 °C, pH 1.2, simulated gastric fluid, thermodynamic from solid, 0.5 h, 37° C., 200 rpm, target concentration 10 mg/mL; unit inferred; read-out: Solubility in SGF (pH 1.2)
Readout: solubility at 0.5 h

Asked: Provide only the value of recorded solubility at 0.5 h for COc1cc2c(Nc3ccc(Br)cc3F)ncnc2cc1OCCCCN(C)C
Given back: > 10000 µg/mL

* * *

test: Solubility test in biological vehicles (FaSSIF, FeSSIF, SGF); format: physicochemical; conditions: FeSSIF, 37 °C, pH 5, fessif, thermodynamic from solid, 0.5 h, 37° C., 200 rpm, target concentration 10 mg/mL; unit inferred; read-out: Solubility in FeSSIF (pH 5.0)
Readout: solubility at 0.5 h (µg/mL)
Number in µg/mL, nothing else.

Asked: Fill in solubility at 0.5 h for record COc1cc2c(Nc3ccc(Br)cc3F)ncnc2cc1OCCCCN(C)C
Given back: 5070

* * *

assay: Solubility test in biological vehicles (FaSSIF, FeSSIF, SGF); format: physicochemical; conditions: 0.5 h, 37° C., 200 rpm, target concentration 10 mg/mL; unit inferred
Readout: Solubility in FeSSIF (pH 5.0)
For clarity, give the value followed by its unit.

Asked: Supply recorded Solubility in FeSSIF (pH 5.0) for COc1cc2c(Nc3ccc(Br)cc3F)ncnc2cc1OCCCCN(C)C here.
Given back: 7.3 mg/mL

* * *

// reported Purity (0 month) per item
Assay: Long-term stability test
Format: physicochemical
Conditions: start of long-term stability test, 0 month
Protocol: An appropriate amount of the salt samples obtained in Examples 1 to 4 and 9 were sealed with a polyethylene film and placed for 5 months under the conditions of 40±2° C. and 75%±5% RH, and a long-term test was carried out.
Give the quantity in %, number only.

| Compound | Unit descriptor | Purity (0 month) |
| --- | --- | --- |
| COc1cc2c(Nc3ccc(Br)cc3F)ncnc2cc1OCCCCN(C)C [Example 3] | % | 98.83 |
| COc1cc2c(Nc3ccc(Br)cc3F)ncnc2cc1OCCCCN(C)C.O=C(O)C(=O)O | % | 99.38 |
| COc1cc2c(Nc3ccc(Br)cc3F)ncnc2cc1OCCCCN(C)C.O=C(O)/C=C\C(=O)O | % | 96.72 |
| COc1cc2c(Nc3ccc(Br)cc3F)ncnc2cc1OCCCCN(C)C [Example 2] | % | 98.55 |

Would you kindly look at the next entry?
Asked: Using the record for COc1cc2c(Nc3ccc(Br)cc3F)ncnc2cc1OCCCCN(C)C [Example 1] , state its measured Purity (0 month).
Given back: 99.62
